Exercise: state measured fold change of affinity for each of the binders provided.
Target: T1, Human CD3eg linker (human)
T1 construct: Single chain: epsilon and gamma subunits of human CD3 joined by a 29-mer linker, Flag-tag at the C-terminus; also called recombinant human CD3
T1 chain: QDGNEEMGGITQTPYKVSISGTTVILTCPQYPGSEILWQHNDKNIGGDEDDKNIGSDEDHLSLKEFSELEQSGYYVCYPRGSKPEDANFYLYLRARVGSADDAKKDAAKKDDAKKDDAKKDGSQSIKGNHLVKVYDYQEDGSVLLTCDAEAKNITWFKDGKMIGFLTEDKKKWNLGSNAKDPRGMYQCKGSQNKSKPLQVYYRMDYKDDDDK
Test: Biacore SPR, vs template H183/L072
Note: state the figure and append the unit.

Task: May I ask what fold change of affinity has been recorded for H183/L072 VH I51D (antibody, name in Kabat numbering, V domains shown) VH: QVQLVESGGGLVQPGRSLRLSCAASGFTFSNAWMHWVRQAPGKGLEWVAQDKDKGNAYAAYYAPSVKGRFTISRDDSKNSIYLQMNSLKTEDTAVYYCHYVHYASASTVLPAFGVDAWGQGTTVTVSS VL: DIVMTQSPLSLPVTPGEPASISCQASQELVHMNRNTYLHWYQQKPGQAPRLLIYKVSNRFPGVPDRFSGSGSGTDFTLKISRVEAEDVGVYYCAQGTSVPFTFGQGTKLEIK ?
Result: 0 fold

Task: Query (binder): H183/L072 VH Q50G (antibody, name in Kabat numbering, V domains shown) VH: QVQLVESGGGLVQPGRSLRLSCAASGFTFSNAWMHWVRQAPGKGLEWVAGIKDKGNAYAAYYAPSVKGRFTISRDDSKNSIYLQMNSLKTEDTAVYYCHYVHYASASTVLPAFGVDAWGQGTTVTVSS VL: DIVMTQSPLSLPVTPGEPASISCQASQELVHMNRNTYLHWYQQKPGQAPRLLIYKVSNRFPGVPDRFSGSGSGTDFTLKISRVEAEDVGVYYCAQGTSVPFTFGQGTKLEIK ; field requested: fold change of affinity
Result: 0 fold

Task: Please give the measured fold change of affinity for this binder: H183/L072 VH Y55E (antibody, name in Kabat numbering, V domains shown) VH: QVQLVESGGGLVQPGRSLRLSCAASGFTFSNAWMHWVRQAPGKGLEWVAQIKDKGNAEAAYYAPSVKGRFTISRDDSKNSIYLQMNSLKTEDTAVYYCHYVHYASASTVLPAFGVDAWGQGTTVTVSS VL: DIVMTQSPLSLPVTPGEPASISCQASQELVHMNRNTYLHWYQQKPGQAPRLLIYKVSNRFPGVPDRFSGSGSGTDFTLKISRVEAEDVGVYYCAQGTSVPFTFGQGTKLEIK
Result: 0.6 fold

Task: Suppose we examine the binder H183/L072 VH Y55N (antibody, name in Kabat numbering, V domains shown) VH: QVQLVESGGGLVQPGRSLRLSCAASGFTFSNAWMHWVRQAPGKGLEWVAQIKDKGNANAAYYAPSVKGRFTISRDDSKNSIYLQMNSLKTEDTAVYYCHYVHYASASTVLPAFGVDAWGQGTTVTVSS VL: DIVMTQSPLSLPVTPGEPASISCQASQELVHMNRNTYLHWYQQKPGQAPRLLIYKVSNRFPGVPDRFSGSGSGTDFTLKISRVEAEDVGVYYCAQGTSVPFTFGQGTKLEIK ; what fold change of affinity value has been reported?
Result: 0.7 fold

Task: Given the binder H183/L072 VH N53R (antibody, name in Kabat numbering, V domains shown) VH: QVQLVESGGGLVQPGRSLRLSCAASGFTFSNAWMHWVRQAPGKGLEWVAQIKDKGRAYAAYYAPSVKGRFTISRDDSKNSIYLQMNSLKTEDTAVYYCHYVHYASASTVLPAFGVDAWGQGTTVTVSS VL: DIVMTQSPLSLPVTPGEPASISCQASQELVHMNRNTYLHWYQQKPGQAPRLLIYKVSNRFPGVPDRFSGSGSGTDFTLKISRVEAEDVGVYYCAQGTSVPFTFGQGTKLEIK , what is its reported fold change of affinity?
Result: 0.8 fold
